assay: soluble on expression in E. coli; label from the status in PepcDB or PDB records
Assay Readout: soluble on expression in E. coli

- Item Sequence: "MELDVKFEEKDLQHIRQVFSRLRGLGKSDGLTRKMASVLQEDAEDAFAMERTPDGVKWRDLSPKYKKQRYNKGYTGNILQRHGDLAGSLNIAYGDNFAAVGVAEHYGEYHQLGTKKMSARPFLGISEDGVEEIKEILNNAIRRALRD"
  Observed Measurement: "not soluble"
- Item Sequence: "MSLNILISGIHGFVGSNFIRALKDKHTLYGLDIVSPAKEGVVTTFSWQDFEPTSFPFQTLPQFDAIIHLAGKAHDTKKQSAAQSYFDINTGLTQKIFDFFLESSAKKFIFFSSVKAAADSVVGDVLTEDVIPTPVGPYGESKIKAEEYIKNHFMFPTSSISEDRSLRLEKEKGRIPKNKQVYILRPCMIHGPGNKGNLNLLYNVVKKGIPWPLGDFDNRRSFTSIDNLCYVIEGLLNQDVPTGIYHMGDDEALSTNELIGIMCEAMGKKPHIWKMNKRVMEGCAGLGTLMHLPLNTERLRKLTENYVVSNAKIKAALGIDKLPVTAKEGLMKTIRSFEETKEGHHHHHH"
  Observed Measurement: "soluble"
- Item Sequence: "MNPIVVLGSKVVDGQVTGLLASRLEKAIEVSSLTPEAPVVVSGFGEAAAMADYLRARGVTTIVEEPWATSTNENLENAHALFPDTLQWTVVTSGFHAWRTYLWAWHLGIPIKVVTARTPSAERLGMAMRECFALPHSTLRVLWRKIRTPKNLEHHHHHH"
  Observed Measurement: "soluble"
- Item Sequence: "MSLNQIDRLLTIMQRLRDPENGCPWDKEQTFATIAPYTLEETYEVLDAIAREDFDDLRGELGDLLFQVVFYAQMAQEEGRFDFNDICAAISDKLERRHPHVFADSSAENSSEVLARWEQIKTEERAQKAQHSALDDIPRSLPALMRAQKIQKRCANVGFDWTTLGPVVDKVYEEIDEVMYEARQAVVDQAKLEEEMGDLLFATVNLARHLGTKAEIALQKANEKFERRFREVERIVAARGLEMTGVDLETMEEVWQQVKRQEIDLEGGSHHHHHH"
  Observed Measurement: "soluble"
- Item Sequence: "MISNIFKISAALLLLTIVSEAKPCFGRCGGRPPPPCGLPPFLEDLPSDVQTKITEIWKDYKEGDKCYEEQGLTREIMESLPKDVRKSIHKRPPLPFLRGLPKDILAKFDAIFKDKSIPFSEKPEKIDALAQEVLTGDNLKKFQEFKEKKEKEMQEYKDKESKLSAAAKVANEKLEALGKQKFAILEELDENVKDELFDLWKSRPHGPPRHH"
  Observed Measurement: "not soluble"
- Item Sequence: "MTIQLINESSNTAKFQQICEKWQLVHDKSASLALVLTDTRLELRKLDEAKLGAIAVNFVDGTLAHRRKFGGGRGEAIAKAVGIKGNYLPSVIDATAGLGRDAFVLAAIGCKVTLVERHPVIAALLEDGLTRAYLDAEIGEFMQQRMQLANVHNIAQLDTTTQSADVVYLDPMYPHKQKSALVKKEMRVFQHLVGADLDADQFLLPAKALATKRVVVKRPDYAPPLAEQHPSFSQKTKNHRFDIYLSPLQKRLEHHHHHH"
  Observed Measurement: "soluble"

----------
experiment: soluble on expression in E. coli; label from the status in PepcDB or PDB records
Assay Readout: soluble on expression in E. coli

- Item Sequence: "MAHHHHHHMQTPNSECVGPESPKAGIASSCQGCPNASICASMPKGPDPDIELIRQRLSGVKRTVMVISGKGGVGKSTLTKELAFALGQMGLNVALVDLDICGPSLPRLMGVRGEDAHQSAAGIEPVLVDETVSMISMHYLLGDKNEAVLFRGPRKNGVIKMFLKDVIWGDVDIMLIDTPPGTSDEHITVASILQQCGGVTGAILITTPQLVAEADVKREVKFSHKAKLHLLGIVENMSGFVCPNCKESSVIFPRANSQGAGKRLSDEFGVPFWGEVPLDPVLMKACEEGVSLTDIVDGKSPTIEILQSVAAKLVASLEIE"
  Observed Measurement: "soluble"
- Item Sequence: "MMTKNAYAFVVIEESVMVFKRTKDEGLMPIFEGFVPLKEGFLKSFKERCNLEFLENLDLLFLYDKPSAHEIFSLCKELKNSIWDRKLVVALVEALEGFKDWNLSLKIEDKRSNSLGNGTKKLLTNADLGSDYKTIVIDSMKTYHQSQQEKYKRERGETLEVRPTTPPSYGGGSIRISGDKKPDFDEENF"
  Observed Measurement: "not soluble"
- Item Sequence: "MGSDKIHHHHHHMNRLGKALPPLASLMPFEAAARLESFSRAADELHLTQAAISRQIRALEDDLGVALFERRNRGVFLTAAGREFGRTVSAALEGIAAQANALRQEVHDGVVVLFCQLCEAFYWVMPRLASLNRRHPELEVRLVTSTRPVVEHHDYFDVALQTSGRPSGSHALAFTASDEIFPICSPGYLAAQPRPITLASLPEHCLLHHEADPPDWFEWDSWLRAMGNFAPALGNGMVFDSYPLVLQAALAGHGIALGWRRSAEHLIQSGQLVRPLSMSLPLDNALSVYTRHGAQPRAETLALLDWLQREFRRDDQTTPA"
  Observed Measurement: "not soluble"
- Item Sequence: "MASLSDQSGSIGSEQTRPSGAIPVESLPPQALEQLIASLQQEVEQLADALQQLNFANQRWTLCKQSIEAFAEETTRVDLPGAQSRATDAISSTASAKPETSVEVNQNQRLLVPLSRSLYVLGRVINPERCLIDIGTGYHVERKLADAAEFFDRRLKHVRGSMRQLTLKIDQNQQQMQTIREILVRKLAGAQQAAEHT"
  Observed Measurement: "not soluble"
- Item Sequence: "MGSDKIHHHHHHVTVHGLPAPSADTALYQSIMEAGFTAFPERLANWRRFKAAQRGERLDYLPVKLDVEHVSRCNYRCTMCQVSDWPKMTRAADMTVGDFKSLLEQQIGVVEIKLQGMGEPLLAAESFFEMIRHARERHIWVRATTNGSLLHIKENYKGLVESDICEIQVSIDGARPETYEAIRRGGKFERVAENCRLLNAHAAQDGRERTRMWVVVQQGNLADLDLLPKAAAEMGFKRLTLSLDLTSWGQETWERNNEALDAHDLLPVEKAWALVEEGKRLGVEVTFWAIDSKYDWSDPAKLCPWPFERAYIASDMRVVPCCMIANPDVLDMGDARDLTGVWTGERMAEFRRAHLEGRIPEVCNSCYRDPPAP"
  Observed Measurement: "not soluble"
- Item Sequence: "AVFRHTLLHFFERLQSNDIYYKFHNILFLKCEHTEQNAAVIAIARKHQAIWREKITAVLTEAVENQDLADDLDKETAVIFIKSTLDGLIWRWFSSCERFDLGKTAPRIIGIMMDNLENHPDLRRK"
  Observed Measurement: "not soluble"
- Item Sequence: "MAEAVLRVARRQLSQRGGSGAPILLRQMFEPVSCTFTYLLGDRESREAVLIDPVLETAPRDAQLIKELGLRLLYAVNTHCHADHITGSGLLRSLLPGCQSVISRLSGAQADLHIEDGDSIRFGRFALETRASPGHTPGCVTFVLNDHSMAFTGDALLIRGCGRTDFQQGCAKTLYHSVHEKIFTLPGDCLIYPAHDYHGFTVSTVEEERTLNPRLTLSCEEFVKIMGNLNLPKPQQIDFAVPANMRCGVQTPTALEHHHHHH"
  Observed Measurement: "soluble"
- Item Sequence: "MVLYPLEAEVTMVTSFQDADPMGVIYHGNFFRYFEEARRVLMEKIQYGYRDMQDSGYMWPIIDTRVKYVKAIPFNHTIRITAQLTEWENRLRVDYVIYDAETNQRMCKAHTTQVAVSIEKQEMCFVSPAVFLDKVEQWHNHGLEHHHHHH"
  Observed Measurement: "not soluble"
- Item Sequence: "MSLIPSSGPSAKKVVSLGQQSEAQIPEVELIDVNHAVAQSLYKAQVNQSFTQFGDGYASTGTLNIGDVLDIMIWEAPPAVLFGGGLSSMGSGSAQQTKLPEQLVTARGTVSVPFVGDISVVGKTPGQVQEIIKGRLKKMANQPQVMVRLVQNNAANVSVIRAGNSVRMPLTAAGERVLDAVAAVGGSTANVQDTNVQLTRGNVVRTVALEDLVANPRQNILLRRGDVVTMITNPYTFTSMGAVGRTQEIGFSARGLSLSEAIGRMGGLQDRRSDARGVFVFRYTPLVELPAERQDKWIRQGYGSEAEIPTVYRVNMADAHSLFSMQRFPVKNKDVLYVSNAPLAEVQKFLSFVFSPVTSGANSINNLTNEGHHHHHH"
  Observed Measurement: "soluble"
- Item Sequence: "MAVNLYDYANQLEQALRESEEYKAIKEAFANVKANEESKKLFDEFRETQINFQQKQMQGEEIAEEDLQKAQEQAQAIEKDENISALMNAEQKMSQVFQEINQIIVKPLDEIYAD"
  Observed Measurement: "not soluble"
- Item Sequence: "CPVNWVEHERSCYWFSRSGKAWADADNYCRLEDAHLVVVTSWEEQKFVQHHIGPVNTWMGLHDQNGPWKWVDGTDYETGFKNWRPEQPDDWYGHGLGGGEDCAHFTDDGRWNDDVCQRPYRWVCETEL"
  Observed Measurement: "soluble"
- Item Sequence: "SLMDVKCETPNCPFFMSVNTQPLCHECSERRQKNQN"
  Observed Measurement: "soluble"
- Item Sequence: "MTVIIKSMETPEEIEGKSFVHWQTWREAYDDLLPAEFQETMTLERCRLFSQKYPENTLIAMDGVKIVGFISYGNCRDETIQAGEIIALYVLKDYYGKGIAQKLVKAALTDLNHFSEIFLWVLKDNKRAIAFYQKMGFTFDGQEKILELGKPIKEKRMVFYSK"
  Observed Measurement: "not soluble"
